- TESTED SYSTEM: EGFR wildtype (Homo sapiens, UniProt P00533)
- Sequence (P00533 25-1210): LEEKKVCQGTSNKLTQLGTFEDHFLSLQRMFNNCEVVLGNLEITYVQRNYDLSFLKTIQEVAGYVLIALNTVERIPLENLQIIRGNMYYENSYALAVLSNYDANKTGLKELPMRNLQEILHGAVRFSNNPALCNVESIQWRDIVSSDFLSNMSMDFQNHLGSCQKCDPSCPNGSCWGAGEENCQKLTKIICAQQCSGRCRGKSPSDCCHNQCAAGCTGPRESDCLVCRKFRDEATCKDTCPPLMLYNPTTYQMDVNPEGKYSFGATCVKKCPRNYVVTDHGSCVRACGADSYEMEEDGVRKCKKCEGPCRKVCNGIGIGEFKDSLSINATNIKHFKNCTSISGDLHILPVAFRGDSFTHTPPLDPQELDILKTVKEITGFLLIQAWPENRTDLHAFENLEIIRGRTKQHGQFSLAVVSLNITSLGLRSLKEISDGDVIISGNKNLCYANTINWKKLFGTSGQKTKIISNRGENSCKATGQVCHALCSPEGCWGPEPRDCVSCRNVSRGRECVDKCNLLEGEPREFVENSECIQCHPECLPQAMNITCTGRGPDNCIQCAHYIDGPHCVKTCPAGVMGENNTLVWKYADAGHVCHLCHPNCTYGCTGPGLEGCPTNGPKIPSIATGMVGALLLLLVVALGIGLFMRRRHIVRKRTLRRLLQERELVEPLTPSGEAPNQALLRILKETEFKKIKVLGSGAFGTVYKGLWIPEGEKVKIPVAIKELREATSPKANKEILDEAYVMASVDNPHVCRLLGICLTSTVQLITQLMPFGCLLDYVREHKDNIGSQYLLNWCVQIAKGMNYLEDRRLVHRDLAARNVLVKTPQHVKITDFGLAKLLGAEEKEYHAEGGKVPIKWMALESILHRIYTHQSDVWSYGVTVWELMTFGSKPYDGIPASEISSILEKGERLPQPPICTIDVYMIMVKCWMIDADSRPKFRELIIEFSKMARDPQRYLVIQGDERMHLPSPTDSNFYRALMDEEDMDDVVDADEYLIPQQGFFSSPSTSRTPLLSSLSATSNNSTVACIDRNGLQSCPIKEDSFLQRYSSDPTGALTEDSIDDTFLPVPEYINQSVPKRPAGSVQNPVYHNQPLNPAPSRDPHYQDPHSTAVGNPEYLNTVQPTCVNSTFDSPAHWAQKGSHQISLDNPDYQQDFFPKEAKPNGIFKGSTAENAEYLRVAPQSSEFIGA
- EXPERIMENT: Biochemical EGFR kinase assay (Lance Ultra TR-FRET), wildtype
- ASSAY CONTEXT: Km ATP; read-out: IC50 WT (nM) Km ATP
ASSAY METRIC: IC50 (nM)

For orientation, consider the following solved cases.
Output IC50 of O=S(=O)(C1CC1)n1cc(-c2nccc(Nc3cc(N[C@H]4CC[C@@H](CCO)CC4)c(-c4ccc(C(F)F)cn4)cn3)n2)cn1 [Example 94]
7.2

Output IC50 of CN(C)Cc1ccc(-c2cnc(Nc3ccnc(-c4cnn(S(=O)(=O)C5CC5)c4)n3)cc2N[C@H]2CC[C@@](C)(O)CC2)nc1 [Example 31]
0.3

A: C[C@]1(O)CC[C@@H](Nc2cc(Nc3ccnc(-c4cnn(S(=O)(=O)C5CC5)c4)n3)ncc2-c2ccc(N3CCOCC3)nn2)CC1 [Example 43]
B: C[C@]1(O)CC[C@@H](Nc2cc(Nc3ccnc(-c4cnn(S(=O)(=O)C5CC5)c4)n3)ncc2-c2cnc(C(F)(F)F)cn2)CC1 [Example 134]
C: O=S(=O)(C1CC1)n1cc(-c2nccc(Nc3cc(N[C@H]4CC[C@@H](CO)CC4)c(-c4cc(CN5CCC(F)(F)CC5)ccn4)cn3)n2)cn1 [Example 113]
Order the entries by their reported IC50, beginning at the minimum. Ranked list of labels, please, in the requested order.
A, C, B
(A: 2 nM, C: 15 nM, B: 34.2 nM)

I: COc1cnc(-c2cnc(Nc3ccnc(-c4cnn(S(=O)(=O)C5CC5)c4)n3)cc2N[C@H]2CC[C@@](C)(O)CC2)cn1 [Example 56]
II: CN(C)c1cnc(-c2cnc(Nc3ccnc(-c4cnn(S(=O)(=O)C5CC5)c4)n3)cc2N[C@H]2CC[C@@](C)(O)CC2)nc1 [Example 39]
Return label of the item with the larger IC50. Candidates: I , II . # respond with the chosen item's label
I

1: COC1CN(c2ccc(-c3cnc(Nc4ccnc(-c5cnn(S(=O)(=O)C6CC6)c5)n4)cc3N[C@H]3CC[C@@](C)(O)CC3)nc2)C1 [Example 90]
2: CN1CCC(Oc2cnc(-c3cnc(Nc4ccnc(-c5cnn(S(=O)(=O)C6CC6)c5)n4)cc3N[C@H]3CC[C@@H](CO)CC3)cn2)CC1 [Example 146]
Kindly identify the item with the lower IC50 figure among these two: 1 and 2 # respond with the chosen item's label
1
(1: 0.4 nM, 2: 0.8 nM)

P: CN(C)CCOc1cnc(-c2cnc(Nc3ccnc(-c4cnn(S(=O)(=O)C5CC5)c4)n3)cc2N[C@H]2CC[C@@H](CO)CC2)cn1 [Example 116]
Q: C[C@]1(O)CC[C@@H](Nc2cc(Nc3ccnc(-c4cnn(S(=O)(=O)C5CC5)c4)n3)ncc2-c2ccc(C#N)cn2)CC1 [Example 7]
R: CC(C)Nc1cc(Nc2ccnc(-c3cnn(S(=O)(=O)C4CC4)c3)n2)ncc1-c1ccc(CN2CCOCC2)cn1 [Example 125]
S: C[C@]1(O)CC[C@@H](Nc2cc(Nc3ccnc(-c4cnn(S(=O)(=O)C5CC5)c4)n3)ncc2-c2ncccc2OCC(F)(F)F)CC1 [Example 333]
T: CN1CCN(c2ccc(-c3cnc(Nc4ccnc(-c5cnn(S(=O)(=O)C6CC6)c5)n4)cc3N[C@H]3CC[C@@H](C(C)(C)O)CC3)nc2)CC1 [Example 84]
List items by IC50 in falling order. Ranked list of labels, please, in the requested order.
S, R, Q, T, P
(S: 117 nM, R: 44.8 nM, Q: 3 nM, T: 0.6 nM, P: 0.4 nM)

a: O=S(=O)(C1CC1)n1cc(-c2nccc(Nc3cc(N[C@H]4CC[C@@H](CO)CC4)c(-c4cnc(OC(F)F)cn4)cn3)n2)cn1 [Example 129]
b: CN(C)C[C@H]1CC[C@@H](Nc2cc(Nc3ccnc(-c4cnn(S(=O)(=O)C5CC5)c4)n3)ncc2-c2cc(C(C)(C)O)c(F)cn2)CC1 [Example 107]
Kindly identify the item with the lower IC50 figure among these two: a and b # respond with the chosen item's label
b
